system: CLK4; settings: concentration: 1 μM,replicates: in singlicate; n = 1;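 further: KINOMEscan kinase panel screen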
Mark 1 for %Inh under 10%, -1 if at or over.

Check out these entries, answers already filled in.
{"compound": "c1ccc(Oc2ccc(Nc3ccnc4ccc(-c5ccccn5)cc34)cc2)cc1 [GW407034]", "qualitative-label": 1}
{"compound": "Nc1nccc(-c2ccc3c(N)n[nH]c3c2)n1 [GSK1034945]", "qualitative-label": -1}
{"compound": "CC(C)S(=O)(=O)N1CCN(Cc2ccc3c(c2)nc(NC(=O)c2ccsc2)n3C[C@H](O)c2ccccc2)CC1 [GW635815]", "qualitative-label": -1}
{"compound": "Cc1ccc(Nc2ccnc(Nc3ccc4c(c3)CS(=O)(=O)C4)n2)cc1O.Cl [GW579362]", "qualitative-label": -1}
{"compound": "Cc1cccc2c(-c3ccncc3)c(-c3ccc(F)cc3)nn12.Cl [GW461487]", "qualitative-label": 1}
{"compound": "Cn1cc(-c2cccc3c(N)c(C(N)=O)nnc23)cn1", "qualitative-label": -1}

[Q] Take the compound `CC(=O)Nc1ccc(-c2cc3ncnc(SCC(=O)O)c3s2)cc1` and say whether its %Inh is less than 10%.
[A] -1

[Q] Lab note: confirm whether the reported %Inh for this compound is below 10%, equality not counting. compound: `CC(=O)Nc1nc2cnc(Nc3cc(NC(=O)c4cccc(CC(C)(C)C#N)c4)ccc3C)nc2s1`
[A] 1

----------
tested on: RSK3(Kin.Dom.2-C-terminal); construct: gene RPS6KA2; conditions: concentration: 1 μM,replicates: in singlicate; n = 1
Please note: YES applies when %Inh is 9% or greater, and NO applies otherwise.

{"compound": "C[C@@H]1CNc2c(sc3ccc4nc(-c5ccncc5)ccc4c23)C(=O)N1", "qualitative-label": "YES"}
{"compound": "C[C@@H]1CCN(C(=O)N2CCCC2)C[C@@H]1N(C)c1ncnc2[nH]ccc12", "qualitative-label": "YES"}
{"compound": "O=c1[nH]cc(-c2ccc(O)cc2)c2sc(-c3ccncc3)cc12", "qualitative-label": "NO"}

Please find the next compound below.
[Q] Record N#Cc1cccc(C(=O)NC2CCN(c3ccnc(Nc4ccc(F)cc4)n3)C2)c1 (centres unmarked) ; criterion: %Inh no lower than 9%. Met?
[A] NO

----------
system: CDK5; settings: concentration: 1 μM,replicates: in singlicate; n = 1
Listed here: items and their measured %Inh.
Quick note: give the figure in %, leave out the unit.

[Q] Jot down %Inh (CDK5) of `CN1CCN(CCNc2nc3cc(Oc4ccc(NC(=O)Nc5cc(C(F)(F)F)ccc5F)cc4)ccc3[nH]2)CC1.Cl.Cl` .
[A] 0

----------
tested on: RPS6KA4(Kin.Dom.2-C-terminal); details: concentration: 1 μM,replicates: in singlicate; n = 1
Some compounds, each annotated with its measured %Inh.
Provide the reading as a plain figure in %.

Reference set (5 entries):
{"compound": "Cn1ccc2ncnc(Oc3ccc(NC(=O)Nc4cccc(C(F)(F)F)c4)c(Cl)c3)c21", "unit-abbrev": "%", "%Inh": 0}
{"compound": "COc1cccc(CNC(=O)NC2CCN(c3ccnc(Nc4cc(OC)c(OC)c(OC)c4)n3)C2)c1 (centres unmarked)", "unit-abbrev": "%", "%Inh": 0}
{"compound": "c1ccc(Oc2ccc(Nc3ccnc4ccc(-c5ccccn5)cc34)cc2)cc1", "unit-abbrev": "%", "%Inh": 0}
{"compound": "Cl.Nc1n[nH]c2cc(-c3ccccn3)ccc12", "unit-abbrev": "%", "%Inh": 0}
{"compound": "CN1CCN(CCNc2nc3cc(Oc4ccc(NC(=O)Nc5cc(C(F)(F)F)ccc5F)cc4)ccc3[nH]2)CC1.Cl.Cl", "unit-abbrev": "%", "%Inh": 0}

[Q] Identify %Inh associated with the compound CC(C(=O)NC1CCN(c2ccnc(Nc3ccc(F)cc3)n2)C1)c1ccc(Cl)cc1 (centres unmarked)
[A] 5

[Q] Give a short answer stating reported %Inh for `COc1cccc(OC)c1C(=O)Nc1cccc(-c2nn3ccccc3c2-c2ccnc(Nc3cccc(F)c3)n2)c1` .
[A] 14

[Q] Consider the compound `O=C(NOCC1CC1)c1cc(Br)c(F)c(F)c1Nc1ccc(I)cc1Cl` and give its recorded %Inh.
[A] 0

[Q] Name the recorded %Inh of the item `CN1CCN(CCCNc2nccc(-c3c(-c4ccc(F)cc4)nn4cc(C(N)=O)ccc34)n2)CC1` in your answer.
[A] 0

[Q] Please supply the value of reported %Inh for the item `CNC(=O)c1ccccc1Nc1nc(Nc2cccc(CS(C)(=O)=O)c2)ncc1C.O=CO`
[A] 0

----------
test system: CDKL5; conditions: concentration: 1 μM,replicates: in singlicate; n = 1
Recorded measurements of %Inh, one per entry
Your answer should be a plain number; it is taken to be in %.

Record excerpt, results attached:
{"molecule": "Cc1cccc(-c2nc(Nc3ccncc3)c3sccc3n2)n1 [GW869641]", "%Inh (%)": 31}
{"molecule": "Nc1nccc(-c2ccc3c(N)n[nH]c3c2)n1 [GSK1034945]", "%Inh (%)": 0}

The record that follows has no %Inh shown yet.
[Q] Output measured %Inh for this item: FC(F)(F)c1cc(Br)cc(Nc2nccc(-c3cnn4ncccc34)n2)c1 [GW810578]
[A] 95.3

----------
tested on: ASK2; construct: gene MAP3K6; details: concentration: 1 μM,replicates: in singlicate; n = 1
We begin with a simple list: items and their reported %Inh.
The reply should contain only the number, in %.

# count of solved cases: 3
{"chemical-structure": "FC(F)(F)c1cc(Br)cc(Nc2nccc(-c3cnn4ncccc34)n2)c1", "%Inh [%]": 25}
{"chemical-structure": "Nc1nccc(-c2ccc3c(N)n[nH]c3c2)n1", "%Inh [%]": 0}
{"chemical-structure": "Cn1ccc2ncnc(Oc3ccc(NC(=O)Nc4cnn(C(C)(C)C)c4)c(Cl)c3)c21", "%Inh [%]": 9}

[Q] Please report the measured %Inh for `CS(=O)(=O)c1cccc(CNc2nc(Nc3ccc4c(c3)[C@@H]3C[C@@H]4CNC3=O)ncc2C(F)(F)F)c1`
[A] 0

[Q] Give recorded %Inh. `COc1cc2ncn(-c3cc(OCC4CCCCC4)c(C(N)=O)s3)c2cc1OC`
[A] 8

----------
tested on: DYRK1A; details: concentration: 1 μM,replicates: in singlicate; n = 1
experimental-endpoint: %Inh (%)
Value expressed in %; do not type the unit.

Examples with answers:
{"compound": "FC(F)(F)c1cc(Br)cc(Nc2nccc(-c3cnn4ncccc34)n2)c1 [GW810578]", "system-name": "DYRK1A", "%Inh / %": 99.6}
{"compound": "Cn1ccc2ncnc(Oc3ccc(NC(=O)Nc4cncc(C(F)(F)F)c4)c(Cl)c3)c21", "system-name": "DYRK1A", "%Inh / %": 0}

Consider the additional compound presented here.
[Q] Give me measured %Inh, please, for this compound: C[C@@H](Oc1cc(-n2cnc3cc(-c4ccncc4)ccc32)sc1C(N)=O)c1ccccc1Cl [GSK479719]
[A] 57

----------
system: MEK2; construct: gene MAP2K2; conditions: concentration: 1 μM,replicates: in singlicate; n = 1
experimental-endpoint: %Inh (%)
Give the quantity in %, number only.

Use the examples below as a reference point.
{"chemical-structure": "CN(c1cccc(CNc2nc(Nc3ccc4c(c3)CC(=O)N4)ncc2C(F)(F)F)c1)S(C)(=O)=O", "assay-value": 43}
{"chemical-structure": "O=C(Nc1ccc(Oc2ccc3nc(NC(=O)C4CC4)cn3n2)c(F)c1)c1cccn(-c2ccccc2)c1=O", "assay-value": 25}
{"chemical-structure": "C[C@@H](Oc1cc(-n2cnc3cc(-c4ccncc4)ccc32)sc1C(N)=O)c1ccccc1Cl", "assay-value": 0}
{"chemical-structure": "Cn1ccc2ncnc(Oc3ccc(NC(=O)Nc4cccc(C(F)(F)F)c4)c(F)c3)c21", "assay-value": 29}

Attention now shifts to the item below.
[Q] Return reported %Inh. Input molecule: `CC(=O)Nc1ccc(-c2cc3ncnc(SCC(=O)O)c3s2)cc1`
[A] 0

----------
test system: IGF1R; settings: concentration: 1 μM,replicates: in singlicate; n = 1
Listing of recorded %Inh by entry.
Write the number in % without appending the unit.

Record excerpt, results attached:
{"chemical-structure": "COc1cc2c(Nc3ccc(NC(=O)c4ccccc4)cc3)ncnc2cc1OCCCN1CCOCC1", "%Inh, %": 15}
{"chemical-structure": "COc1cc2ncn(-c3cc(OCC4CCCCC4)c(C(N)=O)s3)c2cc1OC", "%Inh, %": 5}

[Q] Indicate its recorded %Inh; the compound in question is `Cn1ccc2ncnc(Oc3ccc(NC(=O)Nc4cc(C(C)(C)C)on4)c(Cl)c3)c21`
[A] 15

[Q] Please look at this compound and report its %Inh: `Cn1ccc2ncnc(Oc3ccc(NC(=O)Nc4cccc(C(F)(F)F)c4)c(F)c3)c21`
[A] 4

Where do these numbers come from? They come from paper PMC5540273.
